tested on: S. aureus ATCC 25923; experiment: microbe, parasite or virus in culture; conditions: ATCC 25923, 18 h
Where a SMILES comes first, the peptide text is derived from it. Bridges are numbered along the chain shown (N, C = ends). [ ]: non-standard residue; d: D form. The star is where a group is joined. Octanoyl = CCCCCCCC(=O)*; Dab = NCC[C@H](N)C(=O)O; Dap = NC[C@H](N)C(=O)O
Reported MIC S. aureus ATCC 25923 by item:

Some solved entries appear below for comparison.
Recorded MIC S. aureus ATCC 25923 for CCCCCCCC(=O)N[C@H](C(=O)N[C@@H](CCCCN)C(=O)N[C@H]1CCNC(=O)[C@H]([C@@H](C)O)NC(=O)[C@H](CCN)NC(=O)[C@H](CCN)NC(=O)[C@H](CC(C)C)NC(=O)[C@@H](Cc2ccccc2)NC(=O)[C@H](CCN)NC1=O)[C@@H](C)O [Compound 42] (Octanoyl-TK[Dab][Dab][dF]L[Dab][Dab]T; lactam 3-C) with S. aureus ATCC 25923, please?
>32 mg/L

Quick check: MIC S. aureus ATCC 25923 on S. aureus ATCC 25923, item CCCCCCCC(=O)N[C@H](C(=O)N[C@@H](CCN)C(=O)N[C@H]1CCCCNC(=O)[C@H]([C@@H](C)O)NC(=O)[C@H](CCN)NC(=O)[C@H](CCN)NC(=O)[C@H](CC(C)C)NC(=O)[C@@H](Cc2ccccc2)NC(=O)[C@H](CCN)NC1=O)[C@@H](C)O [Compound 18] (Octanoyl-T[Dab]K[Dab][dF]L[Dab][Dab]T; lactam 3-C) ?
>32 mg/L

# context switch: different compound, same MIC S. aureus ATCC 25923
Param readout= MIC S. aureus ATCC 25923; system= S. aureus ATCC 25923; entry= CCCCCCCC(=O)N[C@H](C(=O)N[C@@H](CN)C(=O)N[C@H]1CCNC(=O)[C@H]([C@@H](C)O)NC(=O)[C@H](CCN)NC(=O)[C@H](CCN)NC(=O)[C@H](CC(C)C)NC(=O)[C@@H](Cc2ccccc2)NC(=O)[C@H](CCN)NC1=O)[C@@H](C)O [Compound 39] (Octanoyl-T[Dap][Dab][Dab][dF]L[Dab][Dab]T; lactam 3-C) ; returns value.
>32 mg/L
